In this section, each of the variants is paired with its reported protein stability index.
B1: GAGE1 (parent)
chain: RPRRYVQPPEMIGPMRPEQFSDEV

- Variants of: B1
- measurement_description: protein stability index of a GFP-peptide fusion (GPS, HEK-293T) (PSI 1-6); higher = more stable;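 also: lentivirally expressed fusions sorted by FACS into six bins by GFP to DsRed ratio, PSI derived from sequencing read proportions per bin multiplied by bin number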
- test_context: c terminus: a fixed tail appended

Would you please look over these solved cases?
- E23F: 2.98
- Q7M: 3.52
- R4T: 3.98
- E23P: 3.63
- Q19L: 3.63
- R1Y: 3.29
- V24Q: 4.18
- V6A: 3.3

Request: Would you kindly share the measured protein stability index for R3S ?
Response: 4.26

Request: Would you kindly share the measured protein stability index for P17E ?
Response: 4.33

Request: Would you kindly share the measured protein stability index for V24P ?
Response: 4.06

Request: Would you kindly share the measured protein stability index for D22P ?
Response: 3.95

Request: Would you kindly share the measured protein stability index for F20A ?
Response: 4.98

Request: Would you kindly share the measured protein stability index for R4N ?
Response: 3.72

Request: Would you kindly share the measured protein stability index for P17W ?
Response: 3.66

Request: Would you kindly share the measured protein stability index for R4L ?
Response: 4.04

Request: Would you kindly share the measured protein stability index for P9L ?
Response: 4

Request: Would you kindly share the measured protein stability index for R3E ?
Response: 4.51

Request: Would you kindly share the measured protein stability index for V6M ?
Response: 3.59

Request: Would you kindly share the measured protein stability index for P8K ?
Response: 3.98
